Data origin, for the record: ChEMBL document CHEMBL5244264

System: Bel-7402
Assay: Antitumor activity against human Bel-7402 cells assessed as inhibition of cell proliferation incubated for 72 hrs by MTT assay
Format: functional, cell-based
Conditions: Bel-7402, 72 h
Give measured IC50 for each item. Keep answers brief.
One number for each entry, in µM.

Past entries and their recorded results:
Ask | Query (compound): CC(Oc1cc(-c2cnc3cc(-c4cnn(CCN5CCOCC5)c4)ccn23)sc1C(N)=O)c1ccccc1C(F)(F)F (centres undefined) ; field requested: IC50
Reply | 4.33

Ask | Query (compound): CC(Oc1cc(-c2cnc3cc(-c4cnn(CC5CN(C(=O)OC(C)(C)C)C5)c4)ccn23)sc1C(N)=O)c1ccccc1C(F)(F)F (centres undefined) ; field requested: IC50
Reply | 10.4

Ask | Query (compound): CC(Oc1cc(-c2cnc3cc(-c4cnn(CCCN5CCN(C)CC5)c4)ccn23)sc1C(N)=O)c1ccccc1C(F)(F)F (centres undefined) ; field requested: IC50
Reply | 5.99

Next:
Ask | Query (compound): CN(C)CCn1cc(-c2ccn3c(-c4ccc(C(N)=O)c(OCc5cccc(F)c5)c4)cnc3c2)cn1 ; field requested: IC50
Reply | 6.37

* * *

Test system: HCT-116
Assay: Antitumor activity against human HCT-116 cells assessed as inhibition of cell proliferation incubated for 72 hrs by MTT assay
Type: functional, cell-based
Conditions: HCT-116, 72 h
Give measured IC50 for each item. Keep answers brief.
Answers are plain numbers, in nM.

Past entries and their recorded results:
Ask | Query (molecule): CN(C)CCn1cc(-c2ccn3c(-c4ccc(C(N)=O)c(OCc5cccc(F)c5)c4)cnc3c2)cn1 ; field requested: IC50
Reply | 700

Ask | Query (molecule): CC(Oc1cc(-c2cnc3cc(-c4cnn(CCN5CCOCC5)c4)ccn23)sc1C(N)=O)c1ccccc1C(F)(F)F (centres undefined) ; field requested: IC50
Reply | 360

Lab note: each molecule below needs its IC50 filled in.
1. CC(Oc1cc(-c2cnc3cc(-c4cnn(CC5CN(C(=O)OC(C)(C)C)C5)c4)ccn23)sc1C(N)=O)c1ccccc1C(F)(F)F (centres undefined)
2. CC(Oc1cc(-c2cnc3cc(-c4cnn(CCCN5CCN(C)CC5)c4)ccn23)sc1C(N)=O)c1ccccc1C(F)(F)F (centres undefined)

Reply |
1. 480
2. 460
